system: D54 LucT luciferase reporter counterscreen, luminescence, 24 h; assay: reporter signal increase, D54 LucT cells – cell-based, luminescence, cherry pick, counter-screen for N-linked glycosylation inhibitor project, dose response (AID 624404)
Inconclusive results are not listed.
Measured Metric: AC35

# Compound, Recorded Result
data = [
    ("CN(C)C(CNC(=O)CSc1nc2sc3c(c2c(=O)n1C)CCCC3)c1ccccc1 (stereo unspecified)", "682 nM"),
    ("COc1ccc(C2NC(=S)NC3=C2CCCC3=C2SCCS2)cc1 (stereo unspecified)", "186 nM"),
    ("Cn1cccc1/C=C1\\SC(=Nc2cccc(O)c2)NC1=O", "1760 nM"),
    ("COc1ccc(CNC(=O)c2cccc3c(-c4cnn(C)c4)coc23)cc1OC", "1300 nM"),
    ("Cc1ccc(NCCN(C)C)c2c(=O)c3cc(O)ccc3sc12", "5710 nM"),
    ("CC(C)(C)c1ccc(OCC(=O)Nc2ccncc2)c(Br)c1", "35.6 nM"),
]
